Tested on: gene editing with Cas9
procedure-summary: Screen of 322 new SSAP proteins, gene editing activity with Cas9 (Table 5)
Format: cell-based
condition-description: normalized
test-readout: Cas9 with SSAP activity (normalized)
One number for each entry.

I would be grateful if you could provide Cas9 with SSAP activity (normalized) for each of the following entries.
1. SSAP_144: SEQ ID NO: 313; Romboutsia weinsteinii (protein, listed as Romboutsia weinsteinii) TNLKNTLKNKEAKGNNLAINPSYAMKQLMIKMKGEITSALPKELCSERFQRVALTAFNSNPKLQNCAPMTFIAAMMQSDQLGLEPNTPLGQAYLIPYKVKGIDKVQFQIGYKGLLELAHRSGRLKTLYAHEVRENDEFDIDYGLEQRLIHKPLLKGNRGEVIGYYAVYHLEHNGYSFVFMTYDEVLEHGKKYSKSFEGGIWEKEFDSMAKKTVIKKLLKYAPLSIEIQKAINFDESVKGSIDSDMLLVDKADESIDVEGNVLNQRGIKYGCI
2. SSAP_21: SEQ ID NO: 190; Cellulosilyticum lentocellum (protein, listed as Cellulosilyticum lentocellum) SDKKELVLKETHSRLNQLLATKMEAMPKDFNQTRFLQNCMTVLQDTKGIENCHPVSIARTLLKGAFLGLDFFQRECYAIPYGGELQFQTDYKGETKMAKKYSIRDIKDIYAKVVRKGDEFKEEIVAGQQVVDFKPLPFNDAEIIGAFAVVLYQDGGMEYETMSTKQIEGIRDNFSKMKNGLMWTKTPEEAYKKTVLRRLTKKIEKDFASIDQAKAYEESSDMQFKQDEQKQDAKDPFADAVDVEFTEETEGQVRLDGEADGAK
3. SSAP_252: SEQ ID NO: 421; Bacteroides pyogenes DSM 20611 = JCM 6294 (protein, Bacteroides pyogenes) QVADPQSVLNSAVIAATLDLPINPNLGFAAIVPYNDRKSGKCIAQFQLMYKGLVELCLRSGQFASLIDEVVYEGQIVKKNKFTGEYIFDEDAKTSNKVIGYMAYFRLVNGFEKTFYMTSEEVTAHAKAYSQSFKSGYGVWKDNFDIMARKTVLKLLLSKYAPKSIEMQRAITFDQAAVKGDLTETNVDEAEIEYIDNESGSDKIKQAAEDAVIQSQQKTLL
4. SSAP_14: SEQ ID NO: 183 (protein) TTALQTLTNKLAERFEMGDGSGLVETLKSSAFAGATVSDAQMIALLVIANQYQLNPWTKEIYAFPGGNGGLTPIVGVDGWVRIINREPQYDGMEFHFTDDYSACTCTIYRKDRSKPIVVTEFMGECKKSSPAWNSHPKRMLRHKAMIQCARLAFGFTGIYDQDEAERIAENEKPPKNITPQNNVVETTAVELISEEQLSQIRQLMQVTGTEEAKILAYIGVQALNQIPKSQAEAVIKKLNLTLDKQNAEKADNGESVGEEIPL

A:
["−0.663", "−0.320", "−0.560", "−0.351"]

The reported measurements were obtained from patent US20250034594A1.
